Listing of recorded pIC50 by entry.
# test.system: Proteasome Macropain subunit MB1 (Homo sapiens)
# Sequence (P28074 whole entry): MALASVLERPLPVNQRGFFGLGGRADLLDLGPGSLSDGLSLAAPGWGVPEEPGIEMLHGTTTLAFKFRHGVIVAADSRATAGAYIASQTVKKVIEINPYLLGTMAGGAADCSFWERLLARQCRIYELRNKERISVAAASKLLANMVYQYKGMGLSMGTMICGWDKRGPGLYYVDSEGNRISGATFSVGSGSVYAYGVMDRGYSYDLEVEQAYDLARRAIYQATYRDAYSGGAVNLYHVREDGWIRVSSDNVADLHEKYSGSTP
# assay.summary: Inhibition of human chymotrypsin-like activity of 20S proteasome using Suc-LLVY-AMC as substrate pre-incubated for 10 mins followed by substrate addition and measured after 1 hr by spectrofluorimetry
# recorded.conditions: read-out: IC50
pIC50: −log10 of the molar value.

{"compound": "CC[C@H](NC(=O)[C@H](CC(C)C)NC(=O)[C@H](CCc1ccccc1)NC(=O)CN1CCOCC1)C(=O)N[C@@H](CC(C)C)C(=O)[C@@]1(C)CO1", "pIC50": 7.01}
{"compound": "CC[C@H](NC(=O)[C@H](CCc1ccccc1)NC(=O)c1cc(C)on1)C(=O)N[C@@H](Cc1ccccc1)C(=O)N[C@@H](CC(C)C)C(=O)[C@@]1(C)CO1", "pIC50": 7.43}
{"compound": "COC[C@H](NC(=O)[C@H](CCc1ccccc1)NC(=O)c1cc(C)on1)C(=O)N[C@@H](Cc1ccccc1)C(=O)N[C@@H](CC(C)C)C(=O)[C@@]1(C)CO1", "pIC50": 7.29}
{"compound": "CCCC[C@H](NC(=O)[C@H](Cc1ccccc1)NC(=O)[C@H](CC(C)C)NC(=O)[C@H](CCc1ccccc1)NC(=O)CN1CCOCC1)C(=O)[C@@]1(C)CO1", "pIC50": 7.28}
{"compound": "CC(C)C[C@H](NC(=O)[C@H](CCc1ccccc1)NC(=O)CN1CCOCC1)C(=O)N[C@@H](Cc1cscn1)C(=O)N[C@@H](CC(C)C)C(=O)[C@@]1(C)CO1", "pIC50": 7.57}
{"compound": "Cc1cc(C(=O)N[C@@H](CCc2ccccc2)C(=O)N[C@H](C(=O)N[C@@H](Cc2ccccc2)C(=O)N[C@@H](CC(C)C)C(=O)[C@@]2(C)CO2)C2CC2)no1", "pIC50": 7.49}

Data provenance: ChEMBL document CHEMBL4393740
